Some compounds, each annotated with its measured Vd.
test.method.notes: Volume of distribution at steady state in dog after iv administration
Type: ADME, organism-based, Canis lupus familiaris
conditions.used: in vivo, read-out: Vdss
experimental.endpoint: Vd

In [3]: df
Out[3]:
                                   compound   reported
0                           CCCC(CCC)C(=O)O  0.31 L/kg
1  COCCc1ccc(OCC(O)CNC(C)C)cc1 (stereo not given)   4.5 L/kg
2  CO[C@@]1(NC(=O)CSC(F)F)C(=O)N2C(C(=O)O)=C(CSc3nnnn3CCO)CO[C@@H]21  0.32 L/kg
3  CN1CCN(c2c(F)cc3c(=O)c(C(=O)O)cn(CCF)c3c2F)CC1   1.3 L/kg
4  Cn1cc(/C=C2/C(=O)N3C(C(=O)O)=CS[C@H]23)nn1  0.32 L/kg

Where do the numbers come from? From ChEMBL document CHEMBL1614629.
